# system: GDP-bound KRAS wild-type protein (Homo sapiens)
# procedure-details: Binding to KRAS by surface plasmon resonance (SPR), Single Cycle Kinetics
# assay-setup: SPR Single Cycle Kinetics, GDP-bound KRAS wild-type protein, 1:1 binding model; read-out: KRAS KD
*1 amine or outer side, *2 acyl side, *3 side chain or, on linkers, in order; H or OH if unused. Where a SMILES comes first, the peptide text is derived from it. Bridges are numbered along the chain shown (N, C = ends). [ ]: non-standard residue; d: D form. The star is where a group is joined. hPhe(3-Cl-4-CF3) = N[C@@H](CCc1ccc(C(F)(F)F)c(Cl)c1)C(=O)O; X23 = C=CCCN([C@@H](Cc1ccc(C(F)(F)F)cc1)C(=O)[*:2])[*:1]; NPrPhe(4-CF3) = CCCN[C@@H](Cc1ccc(C(F)(F)F)cc1)C(=O)O; NMeGly(cPent) = CN[C@H](C(=O)O)C1CCCC1; Pro(4,4-Me2) = CC1(C)CN[C@H](C(=O)O)C1; NMeD = CN[C@@H](CC(=O)O)C(=O)O; NMeL = CN[C@@H](CC(C)C)C(=O)O; Morpholide = C1CN(*)CCO1; NMeA = CN[C@@H](C)C(=O)O; Ac5c = NC1(C(=O)O)CCCC1; Aze = O=C(O)[C@@H]1CCN1; Sar = CNCC(=O)O
Record form. Attribute: Kd. Fill in for each entry.
Please give a number only; it is taken to be in nM.

[ask] Tell me the measured Kd of CCCN1C(=O)CN(C)C(=O)CNC(=O)[C@H]([C@@H](C)CC)NC(=O)[C@H](CC(C)C)N(C)C(=O)C[C@@H](C(=O)N2CCOCC2)N(C)C(=O)[C@H](C2CCCC2)N(C)C(=O)C2(CCCC2)NC(=O)[C@@H]2CC(C)(C)CN2C(=O)[C@H](CCc2ccc(C(F)(F)F)c(Cl)c2)NC(=O)CN(C)C(=O)[C@@H]1Cc1ccc(C(F)(F)F)cc1 [PP0448] ([NMeL]IG[Sar][NPrPhe(4-CF3)][Sar][hPhe(3-Cl-4-CF3)][Pro(4,4-Me2)][Ac5c][NMeGly(cPent)][NMeD]-Morpholide; lactam N-11) , please.
[reply] 0.15

[ask] Tell me the measured Kd of CCC[C@H]1C(=O)N[C@@H]([C@@H](C)CC)C(=O)N(C)CC(=O)N(C)[C@H]2C/C=C\CCN(C2=O)[C@@H](Cc2ccc(C(F)(F)F)cc2)C(=O)N(C)CC(=O)N[C@@H](CCc2ccc(C(F)(F)F)c(OC)c2)C(=O)N2CC[C@H]2C(=O)NC2(CC(C)(C)C2)C(=O)N(C)[C@@H](C(CC)CC)C(=O)N(C)[C@H](C(=O)N(C)C)CC(=O)N1C [PP2936] , please.
[reply] 2.7

[ask] Tell me the measured Kd of C=CCCN1C(=O)[C@@H]2CCN2C(=O)[C@H](C)N(C)C(=O)[C@H]([C@@H](C)CC)NC(=O)[C@H](CC(C)C)N(C)C(=O)C[C@@H](C(=O)N2CCOCC2)N(C)C(=O)[C@H](C2CCCC2)N(C)C(=O)C2(CCCC2)NC(=O)[C@@H]2CCCN2C(=O)[C@H](CCc2ccc(C(F)(F)F)c(Cl)c2)NC(=O)CN(C)C(=O)[C@@H]1Cc1ccc(C(F)(F)F)cc1 [PP0115] ([NMeL]I[NMeA][Aze][X23][Sar][hPhe(3-Cl-4-CF3)]P[Ac5c][NMeGly(cPent)][NMeD]-Morpholide; lactam N-11) , please.
[reply] 0.21

---

# system: UniProt P01116
# procedure-details: Binding to KRAS by surface plasmon resonance (SPR), Single Cycle Kinetics
# assay-setup: SPR Single Cycle Kinetics, GDP-bound KRAS wild-type protein, 1:1 binding model; read-out: KRAS KD
Where a SMILES comes first, the peptide text is derived from it. Bridges are numbered along the chain shown (N, C = ends). [ ]: non-standard residue; d: D form. The star is where a group is joined. hPhe(3-Cl-4-CF3) = N[C@@H](CCc1ccc(C(F)(F)F)c(Cl)c1)C(=O)O; NPrPhe(4-CF3) = CCCN[C@@H](Cc1ccc(C(F)(F)F)cc1)C(=O)O; NMeGly(cPent) = CN[C@H](C(=O)O)C1CCCC1; Pro(4,4-F2) = O=C(O)[C@@H]1CC(F)(F)CN1; NMeD = CN[C@@H](CC(=O)O)C(=O)O; NMeL = CN[C@@H](CC(C)C)C(=O)O; Morpholide = C1CN(*)CCO1; Ac5c = NC1(C(=O)O)CCCC1; NEtG = CCNCC(=O)O; Sar = CNCC(=O)O
Record form. Attribute: Kd. Fill in for each entry.
Please give a number only; it is taken to be in nM.

[ask] Tell me the measured Kd of CCCN1C(=O)CN(C)C(=O)CN(CC)C(=O)[C@H]([C@@H](C)CC)NC(=O)[C@H](CC(C)C)N(C)C(=O)C[C@@H](C(=O)N2CCOCC2)N(C)C(=O)[C@H](C2CCCC2)N(C)C(=O)C2(CCCC2)NC(=O)[C@@H]2CC(F)(F)CN2C(=O)[C@H](CCc2ccc(C(F)(F)F)c(Cl)c2)NC(=O)CN(C)C(=O)[C@@H]1Cc1ccc(C(F)(F)F)cc1 [PP0399] ([NMeL]I[NEtG][Sar][NPrPhe(4-CF3)][Sar][hPhe(3-Cl-4-CF3)][Pro(4,4-F2)][Ac5c][NMeGly(cPent)][NMeD]-Morpholide; lactam N-11) , please.
[reply] 0.33

[ask] Tell me the measured Kd of CCCN1C(=O)CN(C)C(=O)CN(CC)C(=O)[C@H]([C@@H](C)CC)NC(=O)[C@H](CC(C)C)N(C)C(=O)C[C@@H](C(=O)N2CCOCC2)NC(=O)[C@H](C2CCCC2)N(C)C(=O)C2(CCCC2)NC(=O)[C@@H]2CCCN2C(=O)[C@H](CCc2ccc(C(F)(F)F)c(Cl)c2)NC(=O)CN(C)C(=O)[C@@H]1Cc1ccc(C(F)(F)F)cc1 [PP0331] ([NMeL]I[NEtG][Sar][NPrPhe(4-CF3)][Sar][hPhe(3-Cl-4-CF3)]P[Ac5c][NMeGly(cPent)]D-Morpholide; lactam N-11) , please.
[reply] 2.8

---

# system: GDP-bound KRAS wild-type protein (Homo sapiens, UniProt P01116)
# Sequence (P01116 whole entry): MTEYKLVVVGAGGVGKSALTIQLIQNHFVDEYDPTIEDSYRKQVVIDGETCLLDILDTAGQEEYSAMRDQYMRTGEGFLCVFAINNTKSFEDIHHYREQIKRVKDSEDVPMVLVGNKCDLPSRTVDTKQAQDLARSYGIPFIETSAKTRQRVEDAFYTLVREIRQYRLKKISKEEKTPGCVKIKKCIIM
# procedure-details: Binding to KRAS by surface plasmon resonance (SPR), Single Cycle Kinetics
# assay-setup: SPR Single Cycle Kinetics, GDP-bound KRAS wild-type protein, 1:1 binding model; read-out: KRAS KD
*1 amine or outer side, *2 acyl side, *3 side chain or, on linkers, in order; H or OH if unused. Where a SMILES comes first, the peptide text is derived from it. Bridges are numbered along the chain shown (N, C = ends). [ ]: non-standard residue; d: D form. The star is where a group is joined. X22 = O=C([C@H](Cc1ccc(C(F)(F)F)cc1)N(CC1CCCC1)[*:1])[*:2]; hPhe(3-Cl-4-CF3) = N[C@@H](CCc1ccc(C(F)(F)F)c(Cl)c1)C(=O)O; NPrPhe(4-CF3) = CCCN[C@@H](Cc1ccc(C(F)(F)F)cc1)C(=O)O; hPhe(3,4-Cl2) = N[C@@H](CCc1ccc(Cl)c(Cl)c1)C(=O)O; NMeGly(cPent) = CN[C@H](C(=O)O)C1CCCC1; NMeD = CN[C@@H](CC(=O)O)C(=O)O; NMeL = CN[C@@H](CC(C)C)C(=O)O; Morpholide = C1CN(*)CCO1; NMeA = CN[C@@H](C)C(=O)O; Ac5c = NC1(C(=O)O)CCCC1; Aze = O=C(O)[C@@H]1CCN1; Sar = CNCC(=O)O
measurement-kind: pKd
Formally, pKd is defined as -log10 of the concentration c, with c in mol/L.

[ask] Tell me the measured pKd of CCCN1C(=O)CN(C)C(=O)CN(C)C(=O)[C@H]([C@@H](C)CC)NC(=O)[C@H](CC(C)C)N(C)C(=O)C[C@@H](C(=O)N2CCOCC2)N(C)C(=O)[C@H](C2CCCC2)N(C)C(=O)C2(CCCC2)NC(=O)[C@@H]2CCCN2C(=O)[C@H](CCc2ccc(Cl)c(Cl)c2)NC(=O)CN(C)C(=O)[C@@H]1Cc1ccc(C(F)(F)F)cc1 [PP0232] ([NMeL]I[Sar][Sar][NPrPhe(4-CF3)][Sar][hPhe(3,4-Cl2)]P[Ac5c][NMeGly(cPent)][NMeD]-Morpholide; lactam N-11) , please.
[reply] 9.55

[ask] Tell me the measured pKd of CC[C@H](C)[C@@H]1NC(=O)[C@H](C)N(C)C(=O)C[C@@H](C(=O)N(C)C)N(C)C(=O)[C@H](C2CCCC2)N(C)C(=O)C2(CCCC2)NC(=O)[C@@H]2CC(F)(F)CN2C(=O)[C@H](CCc2cc(F)c(C(F)(F)F)c(F)c2)NC(=O)CN(C)C(=O)[C@H](Cc2ccc(C(F)(F)F)cc2)N2CCCC[C@@H](C2=O)N(C)C(=O)CN(C)C1=O [PP0583] , please.
[reply] 10.72

[ask] Tell me the measured pKd of CC[C@H](C)[C@@H]1NC(=O)[C@H](CC(C)C)N(C)C(=O)C[C@@H](C(=O)N2CCOCC2)N(C)C(=O)[C@H](C2CCCC2)N(C)C(=O)C2(CCCC2)NC(=O)[C@@H]2CCCN2C(=O)[C@H](CCc2ccc(C(F)(F)F)c(Cl)c2)NC(=O)CN(C)C(=O)[C@H](Cc2ccc(C(F)(F)F)cc2)N(CC2CCCC2)C(=O)[C@@H]2CCN2C(=O)[C@H](C)N(C)C1=O [PP0110] ([NMeL]I[NMeA][Aze][X22][Sar][hPhe(3-Cl-4-CF3)]P[Ac5c][NMeGly(cPent)][NMeD]-Morpholide; lactam N-11) , please.
[reply] 8.40
